Would you kindly list melting point for each of these compounds?

Observe how each entry below is paired with its result.
CC(C)OP(=O)(OC(C)C)c1cccc2c(-c3ccc(F)cc3)cc(-c3ccc(F)cc3)nc12 | 113 to 115 °C
CCOP(=O)(OCC)c1cccc2c(-c3ccc(C)cc3)cc(-c3ccc(F)cc3)nc12 | 139 to 141 °C
CCOP(=O)(OCC)c1cccc2c(-c3ccc(F)cc3)cc(-c3ccccc3)nc12 | 172 to 174 °C

Hi there! I need melting point for each item below, if you can.
1. CCOP(=O)(OCC)c1ccc2nc(-c3ccc(F)c(F)c3)cc(-c3ccccc3)c2c1
2. CC(C)OP(=O)(OC(C)C)c1cccc2c(-c3ccccc3)cc(-c3ccc(F)cc3)nc12
3. CCOP(=O)(OCC)c1cccc2c(-c3ccc(F)cc3)cc(-c3ccc(F)cc3)nc12
4. CCOP(=O)(OCC)c1cccc2c(-c3ccc(F)cc3)cc(-c3ccc(F)c(F)c3)nc12
5. CCOP(=O)(OCC)c1cccc2c(-c3ccccc3)cc(-c3ccccc3)nc12

[reply]
["134 to 136 °C", "107 to 109 °C", "121 to 123 °C", "159 to 161 °C", "118 to 120 °C"]

Hi there! I need melting point for each item below, if you can.
1. CCOP(=O)(OCC)c1cccc2c(-c3ccccc3)cc(-c3ccccc3OC)nc12
2. CCOP(=O)(OCC)c1cccc2c(-c3ccccc3)cc(-c3cccc4ccccc34)nc12
3. Cc1ccc(-c2cc(-c3ccc(F)cc3)nc3c(P(=O)(OC(C)C)OC(C)C)cccc23)cc1
4. CCOP(=O)(OCC)c1ccc2nc(-c3ccc(F)c(F)c3)cc(-c3ccc(C)cc3)c2c1

[reply]
1: 121 to 123 °C; 2: 140 to 142 °C; 3: 121 to 123 °C; 4: 158 to 160 °C
